Below, each of the compounds is paired with its reported solubility kinetic value.
Conditions: buffer; pH 7.4; 200.0 µM
readout-type: solubility kinetic (µg/mL)

>>> experimental_result("Cc1sc2nc[nH]c(=O)c2c1-c1ccc(F)cc1")
4.8
>>> experimental_result("Cc1ccc(OCCNC(=O)C(C)SCC(=O)Nc2ccc(F)cc2)cc1 (stereo unspecified)")
35
>>> experimental_result("CC(SC1=NCCN1S(C)(=O)=O)c1ccccc1 (stereo unspecified)")
42.5

* * *

Details: buffer; pH 7.4; 200.0 µM
Below, each of the molecules is paired with its reported solubility kinetic value.
readout-type: solubility kinetic (mg/mL)

>>> experimental_result("COC(=O)C(O)(c1ccc(NC(=O)c2ccccc2)cc1)C(F)(F)F (stereo unspecified)")
0.0429
>>> experimental_result("CS(=O)(=O)N1CCN(c2ccc([N+](=O)[O-])cc2C(F)(F)F)CC1")
0.0399
>>> experimental_result("CC(=O)Oc1ccccc1-n1c(C)nc(=O)c(-c2ccccc2)c1C")
0.0489

* * *

Below, each of the compounds is paired with its reported solubility kinetic value.
Settings: buffer; pH 7.4; 200.0 µM
readout-type: solubility kinetic (µg/mL)

>>> experimental_result("COc1ccc(CNC(=O)COC(=O)[C@H](Cc2ccccc2)NC(=O)c2cccs2)cc1")
51
>>> experimental_result("N#C/C(=C\\Nc1ccc2c(c1)OCCO2)C(=O)NCc1ccco1")
4.6
>>> experimental_result("c1ccc(-n2ccnc2)cc1")
19.7
>>> experimental_result("CC(C)(C)NC(=O)NC(=O)COC(=O)CNC(=O)C1CCCCC1")
40.9
>>> experimental_result("O=C(CN1CCN(c2ccccc2F)CC1)c1ccc(O)c(O)c1")
47.6
>>> experimental_result("CC(NC(=O)CCC(=O)NC(C)c1ccccc1)c1ccccc1 (stereo not drawn)")
46.2
>>> experimental_result("COCCCNC(=O)c1c(N)n(Cc2ccco2)c2nc3ccccc3nc12")
4.8
>>> experimental_result("O=C(Nc1ccc2[nH]c(=O)[nH]c2c1)c1ccc([N+](=O)[O-])o1")
15.6
>>> experimental_result("CCOP(=O)(c1ccc(N(C)C)cc1)C(O)c1ccc(C)cc1 (stereo not drawn)")
46
>>> experimental_result("CCCSC1=C(C#N)C(c2cccs2)CC(=O)N1 (stereo not drawn)")
33.7
>>> experimental_result("Cc1cc(C)cc(NS(=O)(=O)c2ccc(NC(=O)c3ccccc3C(=O)O)cc2)c1")
54.2
>>> experimental_result("CCn1c(C)c(C)c2cc(C(=O)NCCc3ccco3)ccc21")
24.4
>>> experimental_result("COc1ccc(/C=C/c2cc(C(F)(F)F)on2)cc1")
1.3
>>> experimental_result("O=C(COC(=O)c1ccccc1O)NC1CCCc2ccccc21 (stereo not drawn)")
4.6
>>> experimental_result("O=C(c1cccnc1)N1CCCC(Nc2ccc(F)cc2)C1 (stereo not drawn)")
41.6
>>> experimental_result("COc1nc(OCC#N)nc(N2CCCCC2)n1")
31.6
>>> experimental_result("O=C(CNCc1ccc(F)cc1)Nc1ccccc1[N+](=O)[O-]")
32.7
>>> experimental_result("Cc1c(Cl)cccc1NC(=O)C1COc2ccccc2O1 (stereo not drawn)")
30.6
>>> experimental_result("Cc1cccc(NC(=O)CCCC(=O)OC(C)C(=O)c2ccccc2)c1 (stereo not drawn)")
46.1
>>> experimental_result("CCOc1ccccc1NC(=O)Nc1ccc(CC#N)cc1")
37.8
>>> experimental_result("Cc1ccc(/C(O)=C/c2nc3ccccc3oc2=O)cc1")
22.5
>>> experimental_result("O=[N+]([O-])c1ccc(S(=O)(=O)Nc2ccc3c(c2)OCCO3)cc1")
45.2
>>> experimental_result("COc1ccc(NC(=S)NC(=O)C2CCC2)cc1")
7.7
>>> experimental_result("O=C1Nc2ccccc2O/C1=C\\c1ccccc1Br")
3.3
